Values were extracted from PubChem BioAssay.

target.or.test.system: Pantothenate synthetase (Mycobacterium tuberculosis (strain ATCC 25618 / H37Rv)) (UniProt P9WIL5)
Sequence (P9WIL5 whole entry, looked up): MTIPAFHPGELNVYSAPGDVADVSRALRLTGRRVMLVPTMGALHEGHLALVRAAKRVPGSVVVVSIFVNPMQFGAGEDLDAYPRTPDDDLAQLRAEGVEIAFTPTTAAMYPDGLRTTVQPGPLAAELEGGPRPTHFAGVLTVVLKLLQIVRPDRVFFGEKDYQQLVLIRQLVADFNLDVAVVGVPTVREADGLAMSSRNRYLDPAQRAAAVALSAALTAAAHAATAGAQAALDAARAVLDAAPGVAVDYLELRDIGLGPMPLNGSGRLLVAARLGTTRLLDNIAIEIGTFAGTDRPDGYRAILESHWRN
experiment.summary: Coupled enzyme confirmation of inhibitors against recombinant Mtb PanC (AID 375);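 note: 0% = full reaction with vehicle and 100% = no enzyme background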
reported.conditions: coupled enzyme assay; at 10 µM, hits give high values
measured.attribute: inhibition (%)
Record the value in %, omitting the unit from your answer.

Use the examples below as a reference point.
compound | measured.attribute | reported
OCCN1CCN(CCCN2c3ccccc3Sc3ccc(Cl)cc32)CC1 | inhibition | 0
Cn1c(C(=O)NCCCN2CCN(c3ccc(F)cc3)CC2)cc2c(=O)n(C)c3ccccc3c21 | inhibition | 0
Cc1nc2ccccc2cc1C(=O)NCc1ccco1 | inhibition | 0
COC(=O)c1cn(-c2ccccc2)nc1C(=O)OC | inhibition | 2
Cc1nnc(SCCn2c(N3CC(C)CC(C)C3)nc3c2c(=O)n(C)c(=O)n3C)s1 (stereo unspecified) | inhibition | 0
COc1ccc(NC(=O)CN2CCN(CC(=O)Nc3cc(OC)cc(OC)c3)CC2)cc1 | inhibition | 8

Lab book: inhibition of `O=C(CSC1=NCCS1)NCc1ccco1` noted as 0

Lab book: inhibition of `CCOc1ccc2[nH]c(=O)c(CN(Cc3ccccc3)C(=O)N3CCCC3)cc2c1` noted as 6

Lab book: inhibition of `O=C(CP(=O)(CO)CO)c1ccc(Cl)cc1` noted as 0

Lab book: inhibition of O=C(NCc1ccc2c(c1)OCO2)c1cc2n(n1)C(C(F)(F)F)CC(c1ccc3c(c1)OCO3)N2 (stereo unspecified) noted as 0

Lab book: inhibition of `CN(C)CCNC(=O)c1ccc(COCC(F)(F)F)cc1` noted as 0

* * *

target.or.test.system: Pantothenate synthetase (Mycobacterium tuberculosis (strain ATCC 25618 / H37Rv)) (UniProt P9WIL5)
experiment.summary: Coupled enzyme confirmation of inhibitors against recombinant Mtb PanC (AID 375);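 note: 0% = full reaction with vehicle and 100% = no enzyme background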
reported.conditions: coupled enzyme assay; at 10 µM, hits give high values
measured.attribute: inhibition (%)
Record the value in %, omitting the unit from your answer.

Use the examples below as a reference point.
compound | measured.attribute | value.units | reported
Cn1c(=O)c2c(ncn2CC(=O)OCC(=O)NC2CCCc3ccccc32)n(C)c1=O (stereo not given) | inhibition | % | 3
CCOCCn1cnc2sc(C(=O)Nc3nc(C)c(C(=O)OCC)s3)c(C)c2c1=O | inhibition | % | 13
CCOC(=O)c1[nH]c(C)c(C(=O)NCc2ccccn2)c1C | inhibition | % | 0
CC(C)(C)OC(=O)N1CC=C2C(C#N)=C(N)C(C#N)(C#N)C(c3cccs3)C2C1 (stereo not given) | inhibition | % | 0

Here's the next entry for you.
Lab book: inhibition of `O=C(/C=C/N1CCOCC1)c1ccc(-c2ccccc2)cc1` noted as 4

* * *

target.or.test.system: Pantothenate synthetase (Mycobacterium tuberculosis (strain ATCC 25618 / H37Rv))
experiment.summary: Coupled enzyme confirmation of inhibitors against recombinant Mtb PanC (AID 375);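 note: 0% = full reaction with vehicle and 100% = no enzyme background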
reported.conditions: coupled enzyme assay; at 10 µM, hits give high values
Catalogue of inhibition readings, one per entry.
Record the value in %, omitting the unit from your answer.

Use the examples below as a reference point.
molecule | value.units | reported
CSc1cccc(NC(=O)C2CCCN2S(=O)(=O)c2ccc3c(c2)CCC(=O)N3)c1 (stereo unspecified) | % | 0
O=C(O)C1CCCCC1C(=O)Nc1ccccn1 (stereo unspecified) | % | 0
CC(C)Cc1cc(C(=O)Nc2c(F)cc(F)cc2Br)no1 | % | 0

Lab book: inhibition of `Cc1cccc(N(CC(=O)N2CCCC2)S(=O)(=O)c2ccccc2)c1C` noted as 0

Lab book: inhibition of `O=C(CSc1nnnn1-c1ccccc1Cl)Nc1ccc2c(c1)OCCO2` noted as 8

Lab book: inhibition of `CCOc1ncccc1C(=O)OCC(=O)N1CC(=O)Nc2ccccc21` noted as 0

Lab book: inhibition of `NC(=O)CSc1nnc(-c2cnccn2)n1-c1ccccc1` noted as 0

Lab book: inhibition of `CCSCc1nnc(SCC(=O)Nc2cccc(SC)c2)n1C` noted as 4

Lab book: inhibition of COc1ccc(OC)c(S(=O)(=O)N2CCC(C(=O)NCC3CCCO3)CC2)c1 (stereo unspecified) noted as 7

Lab book: inhibition of CCN1CCN(CCNC(=O)c2cn(C(C)c3ccccc3F)nn2)CC1 (stereo unspecified) noted as 0

Lab book: inhibition of Cc1ccc2cc3cc(C(=O)N4CC(C)CC(C)C4)oc3nc2c1 (stereo unspecified) noted as 3
